// data source = patent US10174067B2

conditions: Day 14; G10-G16 groups; single IP 400 mg/kg; Mean±SEM
Measure: Weight of mice, Day 14 (g)
Answers are plain numbers, in g.

As a guide, the following entries are already answered.
| Compound | Weight of mice, Day 14 / g |
| --- | --- |
| O=C(COc1nc(Cl)c(Cl)cc1Cl)OCC1OC(n2cc(-c3cn(Cc4ccccc4)nn3)c(NC(=O)OCc3ccc([N+](=O)[O-])cc3)nc2=O)C(F)(F)C1O (stereo not drawn) [Compound G13] | 20.53 |
| O=C(COc1nc(Cl)c(Cl)cc1Cl)OC[C@H]1O[C@@H](n2cc(Br)c(NC(=O)OCc3ccccc3)nc2=O)C(F)(F)C1O (stereo partly drawn) [Compound G10] | 19.60 |

Next compound, please.
Input: If you can, please state the reported Weight of mice, Day 14 value of CCCCOC(=O)Nc1nc(=O)n(C2OC(COC(=O)COc3nc(Cl)c(Cl)cc3Cl)C(O)C2(F)F)cc1Br (stereo not drawn) [Compound G16] .
Output: 20.87

* * *

Give Weight of mice, Day 23 for every item shown.
conditions: Day 23; G10-G16 groups; single IP 400 mg/kg; Mean±SEM
Numbers only, in g.

Some compounds with recorded Weight of mice, Day 23:
| Compound | Weight of mice, Day 23 (g) |
| --- | --- |
| O=C(COc1nc(Cl)c(Cl)cc1Cl)OCC1OC(n2cc(-c3cn(Cc4ccccc4)nn3)c(NC(=O)OCc3ccc([N+](=O)[O-])cc3)nc2=O)C(F)(F)C1O (stereo not drawn) | 21.44 |
| CCCCOC(=O)Nc1nc(=O)n(C2OC(COC(=O)COc3nc(Cl)c(Cl)cc3Cl)C(O)C2(F)F)cc1I (stereo not drawn) | 20.23 |

Consider the record given below.
Input: Please give the measured Weight of mice, Day 23 for this compound: CCCCOC(=O)Nc1nc(=O)n(C2OC(COC(=O)COc3nc(Cl)c(Cl)cc3Cl)C(O)C2(F)F)cc1Br (stereo not drawn)
Output: 21.78

* * *

settings: Day 21; G10-G16 groups; single IP 400 mg/kg; Mean±SEM
Would you mind telling me the reported Weight change rate, Day 21 of each entry?

| Compound | Result |
| --- | --- |
| CCCCOC(=O)Nc1nc(=O)n(C2OC(COC(=O)COc3nc(Cl)c(Cl)cc3Cl)C(O)C2(F)F)cc1-c1cn(Cc2ccccc2)nn1 (stereo not drawn) | 9.29 ± 0.71 % |
| O=C(COc1nc(Cl)c(Cl)cc1Cl)OCC1OC(n2cc(-c3cn(Cc4ccccc4)nn3)c(NC(=O)OCc3ccc([N+](=O)[O-])cc3)nc2=O)C(F)(F)C1O (stereo not drawn) | 4.12 ± 3.07 % |
| CCCCOC(=O)Nc1nc(=O)n(C2OC(COC(=O)COc3nc(Cl)c(Cl)cc3Cl)C(O)C2(F)F)cc1Br (stereo not drawn) | 5.42 ± 2.41 % |
| O=C(COc1nc(Cl)c(Cl)cc1Cl)OC[C@H]1O[C@@H](n2cc(Br)c(NC(=O)OCc3ccccc3)nc2=O)C(F)(F)C1O (stereo partly drawn) | −2.23 ± 3.14% |

Respectfully, I request Weight change rate, Day 21 for each entry included below.
1. CCCCOC(=O)Nc1nc(=O)n([C@@H]2O[C@H](COC(=O)Cn3cnc([N+](=O)[O-])c3)C(O)C2(F)F)cc1I (stereo partly drawn)
2. CCCCOC(=O)Nc1nc(=O)n(C2OC(COC(=O)COc3nc(Cl)c(Cl)cc3Cl)C(O)C2(F)F)cc1I (stereo not drawn)

Output:
["3.68 ± 2.13 %", "−0.53 ± 3.44%"]

* * *

test system: HCT-116 colon cancer xenografts; assay: Tumor growth inhibition of HCT-116 colon cancer xenografts in tumor-bearing nude mice (tumor volume, TGI %, RTV, T/C %); assay type: in vivo, Balb/c Nude mice; conditions: Day 11; G3-G9 groups; single IP dose; Mean±SEM
Marks after values point to notes of the source that are not given here.
Measure: Tumor volume, Day 11

| Molecule | Tumor volume, Day 11 |
| --- | --- |
| CC(C)(C)OC(=O)Nc1ccn([C@@H]2O[C@H](CO)[C@@H](O)C2(F)F)c(=O)n1 [Compound G3] | 416.66 ± 160.05 mm^3 |
| O=C(Nc1nc(=O)n([C@@H]2O[C@H](CO)[C@@H](O)C2(F)F)cc1Br)OCc1ccccc1 [Compound G7] | 150.60 ± 38.77** mm^3 |
| CC(C)(C)OC(=O)Nc1ccn([C@@H]2O[C@H](COC(=O)Cn3cnc([N+](=O)[O-])c3)[C@@H](O)C2(F)F)c(=O)n1 [Compound G9] | 192.42 ± 37.84** mm^3 |
| CCCCOC(=O)Nc1nc(=O)n([C@@H]2O[C@H](CO)[C@@H](O)C2(F)F)cc1Br [Compound G6] | 220.89 ± 0.00 mm^3 |
| O=C(Nc1ccn([C@@H]2O[C@H](CO)[C@@H](O)C2(F)F)c(=O)n1)OCc1ccc([N+](=O)[O-])cc1 [Compound G5] | 44.57 ± 18.01** mm^3 |

Input: Find the measured Tumor volume, Day 11: item O=C(Nc1ccn([C@@H]2O[C@H](CO)[C@@H](O)C2(F)F)c(=O)n1)OCc1ccccc1 [Compound G4] , target or system HCT-116 colon cancer xenografts.
Output: 59.68 ± 11.72** mm^3

* * *

For each record, write down the corresponding Weight change rate, Day 18.
details: Day 18; G3-G9 groups; single IP dose; Mean±SEM
One number for each entry, in %.

| Molecular String | Unit Abbrev | Result |
| --- | --- | --- |
| O=C(Nc1ccn([C@@H]2O[C@H](CO)[C@@H](O)C2(F)F)c(=O)n1)OCc1ccc([N+](=O)[O-])cc1 | % | 8.28 |
| CC(C)(C)OC(=O)Nc1ccn([C@@H]2O[C@H](CO)[C@@H](O)C2(F)F)c(=O)n1 | % | 2.66 |
| O=C(Nc1ccn([C@@H]2O[C@H](CO)[C@@H](O)C2(F)F)c(=O)n1)OCc1ccccc1 | % | 9.28 |
| CC(C)(C)OC(=O)Nc1ccn([C@@H]2O[C@H](COC(=O)Cn3cnc([N+](=O)[O-])c3)[C@@H](O)C2(F)F)c(=O)n1 | % | 3.38 |

Would you be so kind as to report Weight change rate, Day 18 for each listed record?
1. CCCCOC(=O)Nc1nc(=O)n([C@@H]2O[C@H](CO)[C@@H](O)C2(F)F)cc1Br
2. O=C(Nc1nc(=O)n([C@@H]2O[C@H](CO)[C@@H](O)C2(F)F)cc1Br)OCc1ccccc1

Output:
1. 5.18
2. 6.51

* * *

conditions: Day 16; G10-G16 groups; single IP 400 mg/kg; Mean±SEM
Measure: Weight of mice, Day 16 (g)
Numbers only, in g.

Example molecules with recorded Weight of mice, Day 16:
| Molecule | Weight of mice, Day 16, g |
| --- | --- |
| CCCCOC(=O)Nc1nc(=O)n(C2OC(COC(=O)COc3nc(Cl)c(Cl)cc3Cl)C(O)C2(F)F)cc1-c1cn(Cc2ccccc2)nn1 (stereo not drawn) [Compound G15] | 22.75 |
| CCCCOC(=O)Nc1nc(=O)n(C2OC(COC(=O)COc3nc(Cl)c(Cl)cc3Cl)C(O)C2(F)F)cc1I (stereo not drawn) [Compound G11] | 20.47 |
| O=C(COc1nc(Cl)c(Cl)cc1Cl)OCC1OC(n2cc(-c3cn(Cc4ccccc4)nn3)c(NC(=O)OCc3ccc([N+](=O)[O-])cc3)nc2=O)C(F)(F)C1O (stereo not drawn) [Compound G13] | 21.25 |
| O=C(COc1nc(Cl)c(Cl)cc1Cl)OC[C@H]1O[C@@H](n2cc(Br)c(NC(=O)OCc3ccccc3)nc2=O)C(F)(F)C1O (stereo partly drawn) [Compound G10] | 19.47 |
| CCCCOC(=O)Nc1nc(=O)n(C2OC(COC(=O)COc3nc(Cl)c(Cl)cc3Cl)C(O)C2(F)F)cc1Br (stereo not drawn) [Compound G16] | 21.02 |

Input: State the recorded Weight of mice, Day 16 for this entry: CCCCOC(=O)Nc1nc(=O)n([C@@H]2O[C@H](COC(=O)Cn3cnc([N+](=O)[O-])c3)C(O)C2(F)F)cc1I (stereo partly drawn) [Compound G12]
Output: 20.55

* * *

settings: Day 28; G10-G16 groups; single IP 400 mg/kg; Mean±SEM
Measure: Weight change rate, Day 28 (%)
Give bare numbers, in %.

Solved entries (count: 2):
| Molecule | Weight change rate, Day 28 / % |
| --- | --- |
| CCCCOC(=O)Nc1nc(=O)n(C2OC(COC(=O)COc3nc(Cl)c(Cl)cc3Cl)C(O)C2(F)F)cc1Br (stereo not drawn) | 3.66 |
| O=C(COc1nc(Cl)c(Cl)cc1Cl)OC[C@H]1O[C@@H](n2cc(Br)c(NC(=O)OCc3ccccc3)nc2=O)C(F)(F)C1O (stereo partly drawn) | −1.77 |

# batch: return Weight change rate, Day 28 for each of the 4 molecules below
1. CCCCOC(=O)Nc1nc(=O)n(C2OC(COC(=O)COc3nc(Cl)c(Cl)cc3Cl)C(O)C2(F)F)cc1I (stereo not drawn)
2. O=C(COc1nc(Cl)c(Cl)cc1Cl)OCC1OC(n2cc(-c3cn(Cc4ccccc4)nn3)c(NC(=O)OCc3ccc([N+](=O)[O-])cc3)nc2=O)C(F)(F)C1O (stereo not drawn)
3. CCCCOC(=O)Nc1nc(=O)n([C@@H]2O[C@H](COC(=O)Cn3cnc([N+](=O)[O-])c3)C(O)C2(F)F)cc1I (stereo partly drawn)
4. CCCCOC(=O)Nc1nc(=O)n(C2OC(COC(=O)COc3nc(Cl)c(Cl)cc3Cl)C(O)C2(F)F)cc1-c1cn(Cc2ccccc2)nn1 (stereo not drawn)

Output:
["−1.11", 12.25, 4.43, 7.08]
